assay: Oral bioavailability in mouse at 10 mg/kg, po; settings: in vivo
value-type: bioavailability (%)
Numbers only, in %.

| test-smiles | bioavailability [%] |
| --- | --- |
| Cc1cccc(NC(=O)Nc2ccc(-c3nsc4ncnc(N)c34)cc2)c1 | 56 |

Please give bioavailability for each item listed below.
1. Cc1ccc(F)c(NC(=O)Nc2ccc(-c3nsc4ncnc(N)c34)cc2)c1
2. Cc1cccc(NC(=O)Nc2ccc(-c3csc4ncnc(N)c34)cc2)c1

Response given:
1. 48
2. 65
